System: brain β amyloid 1-40
Test: Lowering effect on brain β amyloid in rats
Format: in vivo
Settings: po; male Crg:SD rat, 10 mg/kg orally, brain isolated 3 hours after administration, ELISA; read-out: reduction of brain β amyloid 1-40 compared to vehicle control group
Procedure: A test compound was suspended in 0.5% methylcellulose, the final concentration was adjusted to 2 mg/mL, and this was orally administered to male Crg:SD rat (7 to 9 week old) at 10 mg/kg. […] A brain was isolated 3 hours after administration, a cerebral hemisphere was isolated, a weight thereof was measured, the hemisphere was rapidly frozen in liquid nitrogen, and stored at −80° C. until the day for extraction. […]
MEASURED PARAMETER: inhibition in vivo at 10 mg/kg

Let me check: Cc1cnc(C(=O)Nc2ccc(F)c(C3(C)CCSC(N)=N3)c2)cn1 (stereo not drawn) [Compound 359] , system brain β amyloid 1-40, measured inhibition in vivo at 10 mg/kg is 60 to 90%

Value sought: inhibition in vivo at 10 mg/kg, system brain β amyloid 1-40, item CC1(c2cccc(NC(=O)c3ncc(C(F)(F)F)cc3Cl)c2)CCSC(N)=N1 (stereo not drawn) [Compound 482] . Result: 60 to 90%

C[C@@]1(c2cccc(NC(=O)c3cnc(O)cn3)c2)CCSC(N)=N1 [Compound 733] tested on brain β amyloid 1-40 gave inhibition in vivo at 10 mg/kg: 60 to 90%

Bench note, brain β amyloid 1-40: entry Cc1cc(C(=O)Nc2ccc(F)c(C3(C)CCSC(N)=N3)c2)c(C)o1 (stereo not drawn) [Compound 1282] , its inhibition in vivo at 10 mg/kg = 60 to 90%

COc1cnc(C(=O)Nc2cccc(C3(C)CCSC(N)=N3)c2)cn1 (stereo not drawn) [Compound 243] on brain β amyloid 1-40 gives inhibition in vivo at 10 mg/kg = 60 to 90%

Log: brain β amyloid 1-40, compound CC1(c2cccc(NC(=O)c3ccc(Cl)cn3)c2)CCSC(N)=N1 (stereo not drawn) [Compound 793] , inhibition in vivo at 10 mg/kg = 60 to 90%

// assay brain β amyloid 1-40, entry C[C@@]1(c2cccc(NC(=O)c3ncc(Cl)cc3Cl)c2)CCSC(N)=N1 [Compound 39] , inhibition in vivo at 10 mg/kg value = 60 to 90%

GET /values?item= CC1(c2cccc(NC(=O)c3ccc(F)cn3)c2)CCSC(N)=N1 (stereo not drawn) [Compound 212] &system= brain β amyloid 1-40 returns inhibition in vivo at 10 mg/kg: 60 to 90%

Tested system brain β amyloid 1-40; inhibition in vivo at 10 mg/kg recorded for CC1(c2cc(NC(=O)c3ncc(Cl)cn3)ccc2F)CCSC(N)=N1 (stereo not drawn) [Compound 204] was 60 to 90%
